- measuredOn: DNA gyrase (Escherichia coli)
- methodNotes: Inhibition of Escherichia coli JM109 DNA gyrase assessed as DNA triple helix formation by supercoiling assay
pIC50: −log10 of the molar value.
measuredAttribute: pIC50

Here's what some known entries look like.
CO[C@@H]1[C@@H](O)[C@@H](OC(=O)c2ccc(C)[nH]2)[C@H](Oc2ccc3c(O)c(NC(=O)c4ccc(N)c(C)c4)c(=O)oc3c2C)OC1(C)C
6.72
CO[C@@H]1[C@@H](OC(=O)c2ccc(C)[nH]2)[C@@H](O)[C@H](Oc2ccc3c(O)c(NC(=O)c4cc(C)c(O)c(C)c4)c(=O)oc3c2Cl)OC1(C)C
7.77
C=CCc1cc(C(=O)Nc2c(O)c3ccc(O[C@@H]4OC(C)(C)[C@H](OC)[C@@H](O)[C@H]4OC(=O)c4ccc(C)[nH]4)c(C)c3oc2=O)ccc1O
6.34

1. COc1cc(C(=O)Nc2c(O)c3ccc(O[C@@H]4OC(C)(C)[C@H](OC)[C@@H](O)[C@H]4OC(=O)c4ccc(C)[nH]4)c(Cl)c3oc2=O)ccc1O
2. COc1cc(/C=C/C(=O)Nc2c(O)c3ccc(O[C@@H]4OC(C)(C)[C@H](OC)[C@@H](OC(=O)c5ccc(C)[nH]5)[C@H]4O)c(Cl)c3oc2=O)ccc1O
Identify the entry with the larger pIC50. Options: 1 and 2 API: response body contains the label of the selected item.
2

A. CO[C@@H]1[C@@H](OC(=O)c2ccc(C)[nH]2)[C@@H](O)[C@H](Oc2ccc3c(O)c(NC(=O)c4cc(C)c(O)c(C)c4)c(=O)oc3c2)OC1(C)C
B. CO[C@@H]1[C@@H](OC(=O)c2ccc(C)[nH]2)[C@@H](O)[C@H](Oc2ccc3c(O)c(NC(=O)/C=C/c4ccc(O)c(Cl)c4)c(=O)oc3c2Cl)OC1(C)C
Identify the entry with the larger pIC50. Options: A and B API: response body contains the label of the selected item.
B
(B: 7.49, A: 6.92)

a. CO[C@@H]1[C@@H](OC(=O)c2ccc(C)[nH]2)[C@@H](O)[C@H](Oc2ccc3c(O)c(NC(=O)c4ccccc4)c(=O)oc3c2)OC1(C)C
b. CO[C@@H]1[C@@H](O)[C@@H](OC(=O)c2ccc(C)[nH]2)[C@H](Oc2ccc3c(O)c(NC(=O)c4ccccc4)c(=O)oc3c2Cl)OC1(C)C
// compare: a vs b , metric pIC50, want the smaller API: response body contains the label of the selected item.
b
(b: 6.96, a: 7.30)

---

- measuredOn: Cell division inhibitor SulA (Escherichia coli K-12)
- methodNotes: Inhibition of Escherichia coli K-12 DNA sulA expressed in Escherichia coli DC2 assessed as compound concentration required for => 4-fold induction of luxCDABE operon by reported gene assay
measuredAttribute: Activity

CO[C@@H]1[C@@H](OC(=O)c2ccc(C)[nH]2)[C@@H](O)[C@H](Oc2ccc3c(O)c(NC(=O)/C=C/c4ccccc4)c(=O)oc3c2C)OC1(C)C
50 µM

Send back Cell division inhibitor SulA (Escherichia coli K-12) Activity of `CO[C@@H]1[C@@H](O)[C@@H](OC(=O)c2ccc(C)[nH]2)[C@H](Oc2ccc3c(O)c(NC(=O)c4ccc(N)c(C)c4)c(=O)oc3c2C)OC1(C)C` only.
100 µM

Send back Cell division inhibitor SulA (Escherichia coli K-12) Activity of `C=CCc1cc(C(=O)Nc2c(O)c3ccc(O[C@@H]4OC(C)(C)[C@H](OC)[C@@H](OC(=O)c5ccc(C)[nH]5)[C@H]4O)c(C)c3oc2=O)ccc1O` only.
3.1 µM

Send back Cell division inhibitor SulA (Escherichia coli K-12) Activity of `CO[C@@H]1[C@@H](OC(=O)c2ccc(C)[nH]2)[C@@H](O)[C@H](Oc2ccc3c(O)c(NC(=O)c4ccc(N)c(C)c4)c(=O)oc3c2C)OC1(C)C` only.
50 µM

Send back Cell division inhibitor SulA (Escherichia coli K-12) Activity of `CCCc1cc(C(=O)Nc2c(O)c3ccc(O[C@@H]4OC(C)(C)[C@H](OC)[C@@H](OC(=O)c5ccc(C)[nH]5)[C@H]4O)c(C)c3oc2=O)ccc1O` only.
1.6 µM

---

- measuredOn: Cell division inhibitor SulA (Escherichia coli K-12) (UniProt P0AFZ5)
- Sequence (whole entry): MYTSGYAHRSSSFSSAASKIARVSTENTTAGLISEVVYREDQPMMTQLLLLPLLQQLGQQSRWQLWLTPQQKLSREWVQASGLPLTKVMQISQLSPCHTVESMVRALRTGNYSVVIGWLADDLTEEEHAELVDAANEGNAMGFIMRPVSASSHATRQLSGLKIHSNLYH
- methodNotes: Inhibition of Escherichia coli K-12 DNA sulA expressed in Escherichia coli DC2 assessed as compound concentration required for => 4-fold induction of luxCDABE operon by reported gene assay
measuredAttribute: Activity (µM)

COc1cc(C(=O)Nc2c(O)c3ccc(O[C@@H]4OC(C)(C)[C@H](OC)[C@@H](O)[C@H]4OC(=O)c4ccc(C)[nH]4)c(Cl)c3oc2=O)ccc1O
100

I. CO[C@@H]1[C@@H](OC(=O)c2ccc(C)[nH]2)[C@@H](O)[C@H](Oc2ccc3c(O)c(NC(=O)c4ccccc4)c(=O)oc3c2)OC1(C)C
II. CO[C@@H]1[C@@H](OC(=O)c2ccc(C)[nH]2)[C@@H](O)[C@H](Oc2ccc3c(O)c(NC(=O)c4cc(C)c(O)c(C)c4)c(=O)oc3c2Cl)OC1(C)C
Identify the entry with the larger Activity. Options: I and II API: response body contains the label of the selected item.
I
(I: 50 µM, II: 6.3 µM)

---

- measuredOn: DNA gyrase subunit A (Escherichia coli K-12)
- methodNotes: Inhibition of Escherichia coli K-12 DNA gyrase A expressed in Escherichia coli DC2 assessed as compound concentration required for => 4-fold induction of luxCDABE operon by reported gene assay
The source made the active and inactive calls. The calls are words filed in the database; no cut-off is given here.
measuredAttribute: Activity

Here's what some known entries look like.
COc1cc(C(=O)Nc2c(O)c3ccc(O[C@@H]4OC(C)(C)[C@H](OC)[C@@H](OC(=O)c5ccc(C)[nH]5)[C@H]4O)c(Cl)c3oc2=O)ccc1O
25 µM
CO[C@@H]1[C@@H](OC(=O)c2ccc(C)[nH]2)[C@@H](O)[C@H](Oc2ccc3c(O)c(NC(=O)c4ccc(O)c(NC(=O)C(C)C)c4)c(=O)oc3c2Cl)OC1(C)C
3.1 µM
CO[C@@H]1[C@@H](OC(=O)c2ccc(C)[nH]2)[C@@H](O)[C@H](Oc2ccc3c(O)c(NC(=O)c4ccccc4)c(=O)oc3c2Cl)OC1(C)C
3.1 µM
CO[C@@H]1[C@@H](O)[C@@H](O)[C@H](Oc2ccc3c(O)c(NC(=O)/C=C/c4ccccc4)c(=O)oc3c2C)OC1(C)C
inactive
CCCc1cc(C(=O)Nc2c(O)c3ccc(O[C@@H]4OC(C)(C)[C@H](OC)[C@@H](O)[C@H]4O)c(C)c3oc2=O)ccc1O
3.1 µM

Determine from records and report Activity for `COc1cc(C(=O)Nc2c(O)c3ccc(O[C@@H]4OC(C)(C)[C@H](OC)[C@@H](OC(=O)c5ccc(C)[nH]5)[C@H]4O)cc3oc2=O)ccc1O`
25 µM

Determine from records and report Activity for `COc1cc(C(=O)Nc2c(O)c3ccc(O[C@@H]4OC(C)(C)[C@H](OC)[C@@H](O)[C@H]4O)c(C)c3oc2=O)ccc1O`
inactive

Determine from records and report Activity for `CCCc1cc(C(=O)Nc2c(O)c3ccc(O[C@@H]4OC(C)(C)[C@H](OC)[C@@H](O)[C@H]4OC(=O)c4ccc(C)[nH]4)c(C)c3oc2=O)ccc1O`
25 µM

Determine from records and report Activity for `CO[C@@H]1[C@@H](O)[C@@H](O)[C@H](Oc2ccc3c(O)c(NC(=O)c4cc(C)c(O)c(C)c4)c(=O)oc3c2C)OC1(C)C`
inactive

Determine from records and report Activity for `CO[C@@H]1[C@@H](O)[C@@H](OC(=O)c2ccc(C)[nH]2)[C@H](Oc2ccc3c(O)c(NC(=O)/C=C/c4ccccc4)c(=O)oc3c2Cl)OC1(C)C`
> 100 µM

Determine from records and report Activity for `COc1cc(C(=O)Nc2c(O)c3ccc(O[C@@H]4OC(C)(C)[C@H](OC)[C@@H](OC(=O)c5ccc(C)[nH]5)[C@H]4O)c(C)c3oc2=O)ccc1O`
12.5 µM

Determine from records and report Activity for `CO[C@@H]1[C@@H](OC(N)=O)[C@@H](O)[C@H](Oc2ccc3c(O)c(NC(=O)c4ccc(O)c(CC=C(C)C)c4)c(=O)oc3c2C)OC1(C)C`
3.1 µM

Determine from records and report Activity for `CO[C@@H]1[C@@H](OC(=O)c2ccc(C)[nH]2)[C@@H](O)[C@H](Oc2ccc3c(O)c(NC(=O)/C=C/c4ccc(O)c(Cl)c4)c(=O)oc3c2)OC1(C)C`
50 µM

---

- Test system: Pseudomonas aeruginosa
- methodNotes: Antibacterial activity against Pseudomonas aeruginosa K799/61 by broth microdilution method
- Assay type: functional
measuredAttribute: MIC (µg/mL)

I. CO[C@@H]1[C@@H](OC(=O)c2ccc(C)[nH]2)[C@@H](O)[C@H](Oc2ccc3c(O)c(NC(=O)c4ccc(N)c(C)c4)c(=O)oc3c2C)OC1(C)C
II. CCCc1cc(C(=O)Nc2c(O)c3ccc(O[C@@H]4OC(C)(C)[C@H](OC)[C@@H](OC(=O)c5ccc(C)[nH]5)[C@H]4O)c(C)c3oc2=O)ccc1O
// compare: I vs II , metric MIC, want the smaller API: response body contains the label of the selected item.
II

A. CO[C@@H]1[C@@H](OC(=O)c2ccc(C)[nH]2)[C@@H](O)[C@H](Oc2ccc3c(O)c(NC(=O)/C=C/c4ccccc4)c(=O)oc3c2Cl)OC1(C)C
B. COc1cc(C(=O)Nc2c(O)c3ccc(O[C@@H]4OC(C)(C)[C@H](OC)[C@@H](OC(=O)c5ccc(C)[nH]5)[C@H]4O)c(C)c3oc2=O)ccc1O
// compare: A vs B , metric MIC, want the smaller API: response body contains the label of the selected item.
B

1. CO[C@@H]1[C@@H](OC(=O)c2ccc(C)[nH]2)[C@@H](O)[C@H](Oc2ccc3c(O)c(NC(=O)c4cc(C)c(O)c(C)c4)c(=O)oc3c2Cl)OC1(C)C
2. CO[C@@H]1[C@@H](OC(=O)c2ccc(C)[nH]2)[C@@H](O)[C@H](Oc2ccc3c(O)c(NC(=O)c4cc(C)c(O)c(C)c4)c(=O)oc3c2)OC1(C)C
Identify the entry with the larger MIC. Options: 1 and 2 API: response body contains the label of the selected item.
2

1. COc1cc(/C=C/C(=O)Nc2c(O)c3ccc(O[C@@H]4OC(C)(C)[C@H](OC)[C@@H](OC(=O)c5ccc(C)[nH]5)[C@H]4O)c(Cl)c3oc2=O)ccc1O
2. CO[C@@H]1[C@@H](OC(=O)c2ccc(C)[nH]2)[C@@H](O)[C@H](Oc2ccc3c(O)c(NC(=O)c4ccc(O)c(NC(=O)C(C)C)c4)c(=O)oc3c2Cl)OC1(C)C
3. C=CCc1cc(C(=O)Nc2c(O)c3ccc(O[C@@H]4OC(C)(C)[C@H](OC)[C@@H](OC(=O)c5ccc(C)[nH]5)[C@H]4O)c(C)c3oc2=O)ccc1O
Could you please order the items by MIC, going from the lowest number to the highest? Give your ranking as a list of the labels in the requested order.
3, 2, 1
(3: 0.5 µg/mL, 2: 1 µg/mL, 1: 2 µg/mL)
